tested on: Escherichia coli; assay: Antibiogram resistance of similar Escherichia coli strains recorded in the data base; type: cell-based; details: Escherichia coli species 1 to 4, similar between 98.5 to 83.6% to the urine specimen strain
PROPERTY: Resistance of Escherichia coli species 1 to 4 (in words)

[Q] So what Resistance of Escherichia coli species 1 to 4 (in words) did CC1(C)S[C@@H]2[C@H](NC(=O)[C@H](N)c3ccc(O)cc3)C(=O)N2[C@H]1C(=O)O [AMOXICILLIN, amoxicillin] get with Escherichia coli?
[A] resistant

[Q] // next record CCN1CCN(C(=O)N[C@@H](C(=O)N[C@@H]2C(=O)N3[C@@H]2SC(C)(C)[C@@H]3C(=O)O)c2ccccc2)C(=O)C1=O [PIPERACILLIN, piperacillin]
[A] resistant

[Q] Now try CC(=O)OCC1=C(C(=O)O)N2C(=O)[C@@H](NC(=O)Cc3cccs3)[C@H]2SC1 [CEPHALOTIN, cefalotin] .
[A] resistant
